B1: LINE1-full (parent)
chain: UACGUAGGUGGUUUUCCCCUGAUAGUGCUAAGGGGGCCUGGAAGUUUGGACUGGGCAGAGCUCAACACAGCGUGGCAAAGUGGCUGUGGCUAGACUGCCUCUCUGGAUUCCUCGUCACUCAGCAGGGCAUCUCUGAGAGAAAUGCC

- Variants of: B1
- experiment: self-cleavage, relative activity (ratio to wild type); higher = more cleavage; in vitro, sequencing; the parent is a self-cleaving ribozyme
measurement-type: self-cleavage
Hey, just send me the number, nothing else.

Here's what some known entries look like.
> print(dat)
   mutation.code  measurement.type  measured.value
1     U12A U115A     self-cleavage            1.58
2      U13A U52C     self-cleavage            1.78
3      A31U C63G     self-cleavage               0

# context switch: different variant, same self-cleavage
self-cleavage for C71U U115G is 1.23
